# methodDescription: melting temperature; melt of duplexes
# conditionSet: sodium 0.0675 M; strand 1 µM
Some substances, each annotated with its measured Tm.
The figure you give is taken to be in °C; do not add the unit.

Some solved entries appear below for comparison.
substance	testReadout	measurement
CGACGTGCCTGATGTGCTG+CAGCACATATCGCACGTCG ((((((((...((((((((+))))))))...))))))))	Tm	47.7
CGACGTGCTAAATGTGCTG+CAGCACATCCCGCACGTCG ((((((((...((((((((+))))))))...))))))))	Tm	48.9

Would you kindly share the measured Tm for CGACGTGCATGATGTGCTG+CAGCACATGCGGCACGTCG ((((((((...((((((((+))))))))...)))))))) ?
48

Another substance to look at: CGACGTGCTGCATGTGCTG+CAGCACATAGAGCACGTCG (((((((((..((((((((+))))))))..)))))))))
52.3

Another substance to look at: CGACGTGCACCATGTGCTG+CAGCACATCGGGCACGTCG ((((((((.(.((((((((+)))))))).).))))))))
49.4

Another substance to look at: CGACGTGCTGAATGTGCTG+CAGCACATCTCGCACGTCG ((((((((...((((((((+))))))))...))))))))
50

Another substance to look at: CGACGTGCTAGATGTGCTG+CAGCACATCACGCACGTCG ((((((((..(((((((((+)))))))))..))))))))
54.3

Another substance to look at: CGACGTGCGACATGTGCTG+CAGCACATTCAGCACGTCG ((((((((...((((((((+))))))))...))))))))
52.4

Another substance to look at: CGACGTGCCATATGTGCTG+CAGCACATACCGCACGTCG ((((((((..(((((((((+)))))))))..))))))))
48.3

Another substance to look at: CGACGTGCATGATGTGCTG+CAGCACATTTCGCACGTCG ((((((((...((((((((+))))))))...))))))))
48.7

Another substance to look at: CGACGTGCGGGATGTGCTG+CAGCACATCACGCACGTCG (((((((((.(((((((((+))))))))).)))))))))
63.8

Another substance to look at: CGACGTGCGTGATGTGCTG+CAGCACATAAGGCACGTCG ((((((((.(.((((((((+)))))))).).))))))))
52.7

* * *

# methodDescription: melting temperature; UV melt of duplexes
# conditionSet: sodium 0.07 M; strand 2 µM
testReadout: Tm (°C)
The figure you give is taken to be in °C; do not add the unit.

substance	measurement
TTATGTATTAAGTTATATAGTAGTAGTAGT+ACTACTACTACTATATAACTTAATACATAA ((((((((((((((((((((((((((((((+))))))))))))))))))))))))))))))	50.7
ATGGGTGGGAGCCTCGGTAGCAGCC+GGCTGCTACCGAGGCTCCCACCCAT (((((((((((((((((((((((((+)))))))))))))))))))))))))	70.7

Would you kindly share the measured Tm for CCATCATTGTGTCTACCTCA+TGAGGTAGACACAATGATGG ((((((((((((((((((((+)))))))))))))))))))) ?
55.6

* * *

# methodDescription: melting temperature; melt of duplexes
# conditionSet: sodium 0.0675 M; strand 1 µM
Some substances, each annotated with its measured Tm.
The figure you give is taken to be in °C; do not add the unit.

substance	testReadout	readoutUnits	measurement
CGACGTGCGGGATGTGCTG+CAGCACATCTGGCACGTCG ((((((((..(((((((((+)))))))))..))))))))	Tm	°C	57.1
CGACGTGCCAAATGTGCTG+CAGCACATGGCGCACGTCG ((((((((...((((((((+))))))))...))))))))	Tm	°C	51.2
CGACGTGCCAGATGTGCTG+CAGCACATGTGGCACGTCG ((((((((((.((((((((+)))))))).))))))))))	Tm	°C	60
CGACGTGCAACATGTGCTG+CAGCACATGTTGCACGTCG (((((((((((((((((((+)))))))))))))))))))	Tm	°C	64.5
CGACGTGCCTAATGTGCTG+CAGCACATAACGCACGTCG ((((((((.(.((((((((+)))))))).).))))))))	Tm	°C	48.2

Would you kindly share the measured Tm for CGACGTGCCCAATGTGCTG+CAGCACATGCTGCACGTCG ((((((((...((((((((+))))))))...)))))))) ?
47.8

Another substance to look at: CGACGTGCGGCATGTGCTG+CAGCACATAAAGCACGTCG ((((((((...((((((((+))))))))...))))))))
56

* * *

# methodDescription: melting temperature; melt of duplexes
# conditionSet: sodium 0.0675 M; strand 1 µM
testReadout: Tm (°C)
The figure you give is taken to be in °C; do not add the unit.

Some solved entries appear below for comparison.
substance	testReadout	measurement
CGACGTGCCGCATGTGCTG+CAGCACATCCCGCACGTCG ((((((((.(.((((((((+)))))))).).))))))))	Tm	48.8
CGACGTGCGATATGTGCTG+CAGCACATCTCGCACGTCG ((((((((((.((((((((+)))))))).))))))))))	Tm	57.2
CGACGTGCGTGATGTGCTG+CAGCACATGCAGCACGTCG ((((((((...((((((((+))))))))...))))))))	Tm	54.1
CGACGTGCCGTATGTGCTG+CAGCACATAAAGCACGTCG ((((((((..(((((((((+)))))))))..))))))))	Tm	51.5
CGACGTGCTCAATGTGCTG+CAGCACATGAAGCACGTCG (((((((((..((((((((+))))))))..)))))))))	Tm	53.6
CGACGTGCGCAATGTGCTG+CAGCACATCGGGCACGTCG ((((((((.(.((((((((+)))))))).).))))))))	Tm	52.7

Now for a further substance.
Would you kindly share the measured Tm for CGACGTGCGTGATGTGCTG+CAGCACATTGAGCACGTCG ((((((((...((((((((+))))))))...)))))))) ?
54.7

* * *

Some substances, each annotated with its measured Tm.
# methodDescription: melting temperature; melt of duplexes
# conditionSet: sodium 0.0675 M; strand 1 µM
Number first, unit second.

Some solved entries appear below for comparison.
substance	measurement
CGACGTGCTACATGTGCTG+CAGCACATCGGGCACGTCG ((((((((...((((((((+))))))))...))))))))	49.5 °C
CGACGTGCTGTATGTGCTG+CAGCACATTTAGCACGTCG (((((((((..((((((((+))))))))..)))))))))	51.5 °C
CGACGTGCTCCATGTGCTG+CAGCACATAAAGCACGTCG (((((((((..((((((((+))))))))..)))))))))	50.9 °C

Now for a further substance.
Would you kindly share the measured Tm for CGACGTGCGATATGTGCTG+CAGCACATCAGGCACGTCG ((((((((...((((((((+))))))))...)))))))) ?
49.5 °C

* * *

Some substances, each annotated with its measured Tm.
# methodDescription: melting temperature; melt of duplexes
# conditionSet: sodium 0.0675 M; strand 1 µM
Number first, unit second.

Some solved entries appear below for comparison.
substance	testReadout	measurement
CGACGTGCCTGATGTGCTG+CAGCACATCGTGCACGTCG ((((((((..(((((((((+)))))))))..))))))))	Tm	51.4 °C
CGACGTGCCATATGTGCTG+CAGCACATACAGCACGTCG ((((((((..(((((((((+)))))))))..))))))))	Tm	49.9 °C

Now for a further substance.
Would you kindly share the measured Tm for CGACGTGCAGAATGTGCTG+CAGCACATAAGGCACGTCG ((((((((...((((((((+))))))))...)))))))) ?
51 °C

* * *

Some substances, each annotated with its measured Tm.
# methodDescription: melting temperature; melt of duplexes
# conditionSet: sodium 0.0675 M; strand 1 µM
The figure you give is taken to be in °C; do not add the unit.

substance	testReadout	measurement
CGACGTGCCTGATGTGCTG+CAGCACATACAGCACGTCG ((((((((...((((((((+))))))))...))))))))	Tm	50.8
CGACGTGCGGGATGTGCTG+CAGCACATTGAGCACGTCG ((((((((...((((((((+))))))))...))))))))	Tm	55.3
CGACGTGCCATATGTGCTG+CAGCACATCAAGCACGTCG ((((((((...((((((((+))))))))...))))))))	Tm	48.6

Would you kindly share the measured Tm for CGACGTGCAGGATGTGCTG+CAGCACATGTGGCACGTCG ((((((((...((((((((+))))))))...)))))))) ?
50.9

Another substance to look at: CGACGTGCCAAATGTGCTG+CAGCACATTACGCACGTCG ((((((((..(((((((((+)))))))))..))))))))
50.5

Another substance to look at: CGACGTGCGGGATGTGCTG+CAGCACATAAAGCACGTCG ((((((((...((((((((+))))))))...))))))))
53.6

Another substance to look at: CGACGTGCGAAATGTGCTG+CAGCACATCCAGCACGTCG ((((((((...((((((((+))))))))...))))))))
50.8

Another substance to look at: CGACGTGCCGCATGTGCTG+CAGCACATGTGGCACGTCG (((((((((.(((((((((+))))))))).)))))))))
62.9
